# credit: the supplement of paper PMC10266784

Measured SGCB cell-surface expression functional score (log10), listed per entry.
B1: library; numbered along this chain (parent)
chain: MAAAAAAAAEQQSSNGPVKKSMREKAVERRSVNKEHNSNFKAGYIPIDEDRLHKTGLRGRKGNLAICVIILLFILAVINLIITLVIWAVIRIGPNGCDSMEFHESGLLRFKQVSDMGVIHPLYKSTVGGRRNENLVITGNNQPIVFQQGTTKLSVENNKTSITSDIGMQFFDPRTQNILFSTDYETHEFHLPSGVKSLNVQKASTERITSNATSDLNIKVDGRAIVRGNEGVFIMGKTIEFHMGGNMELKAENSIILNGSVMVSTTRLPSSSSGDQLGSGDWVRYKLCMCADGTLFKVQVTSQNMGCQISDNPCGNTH

- Variants of: B1
- measurement.protocol: SGCB cell-surface expression functional score (HA stain, bin4 vs bin1, normalised to synonymous) (log10 ratio); higher = more cell-surface SGCB (functional)
Format: numeric value only, no unit, no commentary.

Look over these answered cases.
mutation.notation	value.measured
L71G	0.23
I255M	0.52
V155Y	-1.9
I234Y	-0.62
G278I	0.08

Problem: Quick one: SGCB cell-surface expression functional score (log10) for `H53R` ?
Result: 0.29

Problem: Next variant up: `G259M`
Result: -1.05

Problem: Next variant up: `P46N`
Result: 0.18

Problem: Next variant up: `G245R`
Result: 0.49

Problem: Next variant up: `I166A`
Result: -0.49

Problem: Next variant up: `S181K`
Result: -1.64

Problem: Next variant up: `H36G`
Result: 0.11
